Reported IC50 is given for each of the following compounds.
Test system: NCI-H460 (lung cancer) human tumor cell line
Procedure Summary: MTS growth inhibition assay, NCI-H460
Format: cell-based
Condition Description: NCI-H460 repeat assay
Method: The agents PDX, PDX-10a, PDX-10b, were evaluated for growth inhibitory activity against, MDA-MB-435, SKBR-3 and NCI-H460 human tumor cell lines. Growth inhibition was measured by MTS assay following three hours of continuous treatment and a seventy-two hour recovery incubation. […] MTS Assay—Cell viability was determined using the MTS assay. […] Formazan production was quantified by spectrophotometric measurement at 490 nm and is proportional to viable cell number. […]
Quantity Name: IC50 (nM)

- C#CC[C@@H](Cc1cnc2nc(N)nc(N)c2n1)c1ccc(C(=O)N[C@@H](CCC(=O)O)C(=O)O)cc1 (single isomer, unassigned) [PDX-10a]: 169
- C#CCC(Cc1cnc2nc(N)nc(N)c2n1)c1ccc(C(=O)N[C@@H](CCC(=O)O)C(=O)O)cc1 (mixture of isomers) [PDX, reference compound]: 124

Provenance of the data: patent US8835433B2
